settings: limosilactobacillus reuteri cf48-3a, 12 h, 2 µM
MEASURED PARAMETER: Bacterial Biotransformation

Please review the following examples before continuing.
Request the reported Bacterial Biotransformation associated with COc1cc2nc(N3CCN(C(=O)C4CCCO4)CC3)nc(N)c2cc1OC (configuration not stated) Compound NOT metabolized

Request the reported Bacterial Biotransformation associated with CCCc1nc(C(C)(C)O)c(C(=O)OCc2oc(=O)oc2C)n1Cc1ccc(-c2ccccc2-c2nnn[nH]2)cc1 Compound metabolized

Request the reported Bacterial Biotransformation associated with COCCc1ccc(OCC(O)CNC(C)C)cc1.COCCc1ccc(OCC(O)CNC(C)C)cc1.O=C(O)C(O)C(O)C(=O)O (configuration not stated) [METOPROLOL TARTRATE] Compound NOT metabolized

Request the reported Bacterial Biotransformation associated with Br.CN(C)CCCC1(c2ccc(F)cc2)OCc2cc(C#N)ccc21 (configuration not stated) [CITALOPRAM HYDROBROMIDE] Compound NOT metabolized

Next:
Request the reported Bacterial Biotransformation associated with CC(=O)Nc1ccc(OC(C)=O)cc1 [DIACETAMATE] Compound metabolized

Request the reported Bacterial Biotransformation associated with COc1ccc(CCN(C)CCCC(C#N)(c2ccc(OC)c(OC)c2)C(C)C)cc1OC (configuration not stated) Compound NOT metabolized

Request the reported Bacterial Biotransformation associated with NC12CC3CC(CC(C3)C1)C2 Compound NOT metabolized
